- system_under_test: T1, human CD3 expressed on cells (human, UniProt P07766 23-207; P04234 22-171; P09693 23-182)
- T1 construct: whole, on cells; CD3 complex on Jurkat cells and on human primary T cells
- assay_protocol: flow cytometry, 25 nM
- Description: Purified antibodies were confirmed to bind CD3 expressed on cells using the CytoFLEX S or LX flow cytometers (Beckman Coulter). Antibodies were diluted to 25 nM in FACS buffer (PBS+2% FBS) and were incubated with CD3-expressing cells for 30 minutes at 4° C. […] The median fluorescence intensity of the binding signal for each antibody was normalized to the isotype control to obtain a fold over isotype value. An antibody with a fold over isotype (FOI) of ≥10 was considered to be positive for binding.
The following binders are listed with their measured Jurkat Cell Binding (FOI) values.
Report as a plain number; the unit FOI is understood.

// below: answered binders
>>> value_measured("mAb 83 (antibody, V domains shown) VH: QVQLVESGGGVVQPGRSLRLSCAASGFTFSGYGMHWVRQAPGKGLDWVAIIYYNGNNKYYADSVKGRFTISRDNSKNTLYLQMNSLRAEDTAVYYCARGGGYNWFDPWGQGTLVIVSS VL: DIQMTQSPSSLSASVGDRVTITCRPSQIIINYLNWYQQKPGKAPKLLIYAASSLQSGVPSRFSGSGSGTDFTLTISSLQPEDFATYYCQQSYSTPFTFGRGTRLEIK")
161
>>> value_measured("mAb 43 (antibody, V domains shown) VH: QAQLVQSGSELKKPGASVKVSCKASGYTFTKHSMNWVRQAPGQGLEWMGWINTNTGNPMYAQGFTGRFVFSLDTSVTTAYLQISSLKAEDTAVYYCAREGDYDFWSGFFNFDYWGQGTLVTVSS VL: DIQMTQSPSSLSASVGDRVTITCRASQGIRNDLGWYQQKPGKAPKRLIYAASSLQSGVPSRFSGSGSGAEFTLTISSLQPEDFATYYCLQHNSYPRTFGQGTKVEIK")
108

Give the reported value of Jurkat Cell Binding (FOI) for this record: mAb 120 (antibody, V domains shown) VH: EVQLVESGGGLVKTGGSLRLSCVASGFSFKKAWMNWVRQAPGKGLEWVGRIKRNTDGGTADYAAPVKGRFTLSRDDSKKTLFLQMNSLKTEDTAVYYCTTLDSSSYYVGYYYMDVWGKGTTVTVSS VL: DIQMTQSPSSVSASVGDRVTITCRASQDINNWLAWYQQKPGKAPKLLIYTASSLQSGVPSRFSGSGSGTDFTLTIGSLQPEDFATYYCQQAHSLPITFGQGTRLEIK 168
